Where do the numbers come from? From patent US20240174744A1.

Reported Kd values for the following binders.
Molecular target: T1, human iRhom2 (inactive rhomboid protein 2, isoform 1), endogenously expressed on human cells (human, UniProt Q6PJF5 1-856)
T1 construct: also called RHBDF2; NP_078875.4
T1 sequence: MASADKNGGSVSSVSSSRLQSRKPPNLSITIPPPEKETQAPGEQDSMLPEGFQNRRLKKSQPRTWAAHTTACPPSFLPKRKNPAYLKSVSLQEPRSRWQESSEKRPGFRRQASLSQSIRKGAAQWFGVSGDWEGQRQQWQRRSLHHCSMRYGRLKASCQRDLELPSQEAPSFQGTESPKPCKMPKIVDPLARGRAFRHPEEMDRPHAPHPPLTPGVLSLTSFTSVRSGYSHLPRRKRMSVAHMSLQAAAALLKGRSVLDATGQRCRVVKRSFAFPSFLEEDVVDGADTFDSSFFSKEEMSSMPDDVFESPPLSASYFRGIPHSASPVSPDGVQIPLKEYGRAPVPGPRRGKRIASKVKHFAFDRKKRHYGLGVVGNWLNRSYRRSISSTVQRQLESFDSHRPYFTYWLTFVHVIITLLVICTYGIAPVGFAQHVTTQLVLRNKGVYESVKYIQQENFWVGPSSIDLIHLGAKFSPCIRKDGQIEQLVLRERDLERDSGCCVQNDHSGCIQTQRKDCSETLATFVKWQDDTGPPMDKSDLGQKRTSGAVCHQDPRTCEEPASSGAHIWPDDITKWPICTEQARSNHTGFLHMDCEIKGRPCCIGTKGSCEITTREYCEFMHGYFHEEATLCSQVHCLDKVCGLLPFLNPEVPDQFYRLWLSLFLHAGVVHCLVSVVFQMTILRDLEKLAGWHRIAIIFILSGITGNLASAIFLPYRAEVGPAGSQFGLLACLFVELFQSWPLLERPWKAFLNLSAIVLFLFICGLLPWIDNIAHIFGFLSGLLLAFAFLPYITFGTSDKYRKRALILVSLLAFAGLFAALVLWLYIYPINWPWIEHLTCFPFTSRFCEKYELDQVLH
Assay: indirect FACS scatchard analysis on THP-1 cells (endogenous iRhom2)
measured-quantity: Kd

>  <binder>
antibody 44 (antibody, V domains shown, Mouse IgG, kappa light chain; also called clone #44; m44) VH: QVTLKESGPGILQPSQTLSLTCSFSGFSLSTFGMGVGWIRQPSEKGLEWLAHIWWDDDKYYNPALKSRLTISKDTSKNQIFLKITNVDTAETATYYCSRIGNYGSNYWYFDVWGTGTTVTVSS VL: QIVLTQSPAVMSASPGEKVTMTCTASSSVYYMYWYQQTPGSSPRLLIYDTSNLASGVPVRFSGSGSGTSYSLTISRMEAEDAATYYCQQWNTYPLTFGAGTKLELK

>  <value-measured>
0.44 nM

$$$$
>  <binder>
antibody 34 (antibody, V domains shown, Mouse IgG, kappa light chain; also called clone #34; m34) VH: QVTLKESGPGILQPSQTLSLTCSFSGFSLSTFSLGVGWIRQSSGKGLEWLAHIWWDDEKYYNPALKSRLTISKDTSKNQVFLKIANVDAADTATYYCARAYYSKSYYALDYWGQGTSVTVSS VL: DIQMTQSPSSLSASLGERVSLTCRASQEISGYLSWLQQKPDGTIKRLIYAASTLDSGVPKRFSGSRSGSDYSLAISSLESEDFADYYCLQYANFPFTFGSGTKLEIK

>  <value-measured>
1.94 nM

$$$$
>  <binder>
antibody 48 (antibody, V domains shown, Mouse IgG, kappa light chain; also called clone #48; purified antibody 48) VH: QVQLQQSGTELVRPGTSVKVSCKASGYAFTNYLIEWVKQRPGQGLEWIGVINPGSGFTKYNEKFKGKATLTADKSSSTVYMHLSSLTSEDSAVYFCARGLYRAMDYWGQGTSVTVSS VL: DIQMTQSPASQSASLGESVTITCLASQTIATWLAWYQQKPGKSPQLLIYGATTLADGVPSRFSGGGSGTKFSFKISSLQAEDFVSYYCQQLYSTPYTFGGGTKLEIK

>  <value-measured>
1.73 nM

$$$$
>  <binder>
antibody 3 (antibody, V domains shown, Mouse IgG, kappa light chain; also called clone #3; purified antibody 3) VH: QVTLKESGPGILQPSQTLSLTCSFSGFSLTTFAMGIGWVRQPSGKGLEWLAHIWWDGEKYNNPVLKSRLTISKDTSKNQVFLRIANVDTPDTATYYCARISSIYYIIDNWGQGTSVTVSS VL: DIVLTQSPATLSVTPGHSVSLSCRASQSISNNLHWYQKKSHESPRLLIKYVSQSISGIPSRFSGSGSGTDFTLSINSVETEDFGMYFCQQSYNWPLTFGAGTKLELK

>  <value-measured>
2.97 nM

$$$$
>  <binder>
antibody 5 (antibody, V domains shown, Mouse IgG, kappa light chain; also called clone #5; purified antibody 5) VH: QVTLKESGPGILQPSQTLSLTCSFSGFSLSTFGMGVGWIRQPSGKGLEWLAHIWWDDEKYYNSALKSRLTISKATSKNQAFLKIANVDTADTATYYCARISNYGSNYWYFNVWGTGTTVTVSS VL: QVVLTQSPALMSASPGEKVTMTCSAGSSVSCMYWYQQKPGSSPRVLIYDTSNLASGVPARFTGSGSGTSYSLTISRMEAEDAASYYCQQWNSYPLTFGAGTKLELK

>  <value-measured>
3.35 nM

$$$$
